Cited source: ChEMBL document CHEMBL3045612

Answer each item with its documented MIC.
Test system: Staphylococcus aureus
protocol-text: Antibacterial activity against methicillin-resistant Staphylococcus aureus assessed as growth inhibition after 24 hr by macrodilution method
Format: functional
Returns: string containing the numeric result and its unit.

Task: So what MIC did Cc1cc(O)c(C(c2c(O)cc(C)oc2=O)c2coc3ccccc3c2=O)c(=O)o1 get with Staphylococcus aureus?
Output: 25 µg/mL

Task: Requested read-out MIC, target or system Staphylococcus aureus, entry O=c1oc2ccccc2c(O)c1C(c1c(O)c2ccccc2oc1=O)c1coc2ccccc2c1=O
Output: 25 µg/mL

Task: Please provide the recorded MIC for Cc1cc2oc(=O)c(C(c3c(O)c4cc(C)c(C)cc4oc3=O)c3coc4ccccc4c3=O)c(O)c2cc1C , tested on Staphylococcus aureus.
Output: 12.5 µg/mL

Task: Which MIC is reported with Staphylococcus aureus for this entry: Cc1[nH]n(-c2ccccc2)c(=O)c1C(c1coc2ccccc2c1=O)c1c(C)[nH]n(-c2ccccc2)c1=O ?
Output: 25 µg/mL
